# credit: paper PMC7180452

tested on: metastatic colorectal adenocarcinoma (SW620); test: In vitro antiproliferative activity, SW620; assay type: cell-based, human; settings: SW620 cells
pIC50: −log10 of the molar value.
RESULT TYPE: pIC50

Example entries begin here.
INSERT INTO assay_data (compound, test_value) VALUES
  ('Clc1ncnc2ncn(Cc3cn(C[c-]4cccc4)nn3)c12.[Fe+2].c1cc[cH-]c1 [Compound 15a]', 4.57),
  ('CC([c-]1cccc1)n1cc(Cn2ccc3c(Cl)ncnc32)nn1.[Fe+2].c1cc[cH-]c1 (stereo not drawn) [Compound 11b]', 4.50),
  ('Clc1ncnc2c1ncn2Cc1cn(-[c-]2cccc2)nn1.[Fe+2].c1cc[cH-]c1 [Compound 13c]', 4.29),
  ('Clc1ncnc2ncn(Cc3cn(-[c-]4cccc4)nn3)c12.[Fe+2].c1cc[cH-]c1 [Compound 15c]', 4.34),
  ('Clc1ncnc2c1ncn2CCn1cc(-[c-]2cccc2)nn1.[Fe+2].c1cc[cH-]c1 [Compound 35a]', 4.11),
  ('CC([c-]1cccc1)n1cc(Cn2cnc3c(Cl)nc(N)nc32)nn1.[Fe+2].c1cc[cH-]c1 (stereo not drawn) [Compound 14b]', 4.01),
  ('[Fe+2].c1cc[c-](-c2cn(CCn3ccc4c(N5CCCCC5)ncnc43)nn2)c1.c1cc[cH-]c1 [Compound 34c]', 4.24),
  ('Nc1nc(Cl)c2ncn(Cc3cn(C[c-]4cccc4)nn3)c2n1.[Fe+2].c1cc[cH-]c1 [Compound 14a]', 4.22);

P = [Fe+2].c1cc[cH-]c1.c1ccc2c(c1)ccn2Cc1cn(C[c-]2cccc2)nn1 [Compound 24a]
Q = [Fe+2].c1cc[cH-]c1.c1ccc2c(c1)ncn2Cc1cn(C[c-]2cccc2)nn1 [Compound 23a]
q: Compare reported pIC50 values for P and Q . Which is lower? Returns: label corresponding to the selected item.
a: Q
(Q: 4.01, P: 4.21)
